molecular target: Tyrosyl-DNA phosphodiesterase 2 (Homo sapiens) (UniProt O95551); test: blockers of TDP2 phosphodiesterase activity – biochemical, epi absorbance, recombinant enzyme, primary screen (AID 720702); settings: recombinant TDP2, T5PNP hydrolysis, p-nitrophenol absorbance 415 nm; at 12.8 µM; hits give high values;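 also: 0% = DMSO with enzyme and 100% = buffer with substrate but no TDP2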
Sequence (O95551 whole entry, looked up): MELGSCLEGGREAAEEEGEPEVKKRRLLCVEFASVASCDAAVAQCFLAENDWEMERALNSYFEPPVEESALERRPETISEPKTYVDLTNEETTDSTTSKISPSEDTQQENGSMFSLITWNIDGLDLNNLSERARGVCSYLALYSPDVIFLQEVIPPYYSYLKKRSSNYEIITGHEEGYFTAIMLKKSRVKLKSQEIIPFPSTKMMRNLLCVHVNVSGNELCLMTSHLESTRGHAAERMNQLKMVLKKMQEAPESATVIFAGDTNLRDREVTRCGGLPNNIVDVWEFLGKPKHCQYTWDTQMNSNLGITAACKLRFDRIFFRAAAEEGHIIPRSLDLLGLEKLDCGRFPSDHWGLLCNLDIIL
Screen size: about 370,000 compounds; about 1,200 (0.32%) were called active. This excerpt belongs to a sample that is enriched for actives.
Entries annotated with measured inhibition
The response must be a number in % with no trailing unit.

// below: answered compounds
Cc1ccc(Cl)cc1NC(=O)CN1CCN(S(=O)(=O)N2CCOCC2)CC1; 27.6
N#Cc1ccc(C(=O)Nc2nc(-c3cccs3)c(C(=O)C(F)(F)F)s2)cc1; -0.4
Cc1ccc(C)c(OCCC(=O)OCC(=O)N2CCN(c3ccccc3)CC2)c1; -10.4
CC(=O)c1ccc(S(=O)(=O)N2CCC3(CC2)OCCO3)cc1; 25.2
COC(=O)c1cc(S(=O)(=O)N2CCN(C(=O)C3CCCO3)CC2)cn1C (stereo not given); -2.33
O=C(OCC(=O)N1CCOCC1)c1ccc(N2CCOCC2)c([N+](=O)[O-])c1; -4.23
O=C(OCC(=O)N1CCN(c2ccccc2)CC1)c1ccc([N+](=O)[O-])s1; 31.9
CC(C)c1ccc(S(=O)(=O)N2CCC3(CC2)OCCO3)cc1; 3.95
CCn1c(=O)n2n(c1=O)[C@@]1(C=C3CCCC[C@H]32)N=C(NC(=O)c2ccccc2)N(Cc2ccccc2)[C@H]1Cc1ccccc1; 4.32

Could you now consider this next compound?
Query: Please look at this compound and report its inhibition: COc1ccc(Cl)cc1NC(=O)CN1CCN(C(=O)N2CCOCC2)CC1
Reply: 5.78
